Ref: PubChem BioAssay (NCI)

# Tested on: SK-OV-3 ovarian
# assay_remarks: NCI-60 one-dose screen, 48 h
# experimental_setup: 10 µM unless noted
Compounds without any hit were thinned out: in the full panel of roughly 83,000, 20% have a hit. Activity calls are given as the source filed them. Rule for the calls: active = growth percent below 10; inactive = the rest.
Use one of these outcomes when replying: 1.0 (active), 0.0 (inactive)

In [3]: df
Out[3]:
                                   compound  class
0  O=C(CSc1nc(-c2ccccc2)cc(=O)[nH]1)Nc1nc(-c2ccccc2)cs1    0.0

What classification did O=C(O)/C=C/C(=O)Nc1cccc(Cn2nnc3cc(Cl)c(Cl)cc32)c1 end up with in this test? 0.0

Repeat with COC(=O)/C=C1/SC(=Nc2ccc([N+](=O)[O-])cc2)N(CCc2c[nH]c3ccc(O)cc23)C1=O 0.0

Repeat with N#Cc1cccc(C2C3=C(COC3=O)N(CCO)c3cc4c(cc32)CCC4)c1 (stereo not given) 0.0

Repeat with COc1ccc(C2=CN3CC=CC3CC2=O)cc1 (stereo not given) 0.0

Repeat with O=c1c2c3c(sc2n2c(-c4cc(-c5ccccc5)no4)nnc2n1Cc1ccccc1)CCCC3 0.0

Repeat with N#Cc1cncc(-c2ccc3ncnc(Nc4cccc(Cl)c4)c3c2)c1 0.0

Repeat with O=C1c2ccccc2C(=O)c2c1cc1c(c2[N+](=O)[O-])OCO1 1.0

Repeat with Cc1ccc(CNc2ccc3nc(CCC(C)C)[nH]c3c2)cc1 0.0

Repeat with Cc1ccc(-c2nc(-c3cn(C)c4ncccc34)cs2)cc1 1.0

Repeat with Cc1nc2cc(O)c(O)cc2cc1Oc1ccc(NC(=O)Nc2ccc(Cl)c(Cl)c2)cc1 0.0

Repeat with COc1ccc(/C=C(/C(=O)n2cnnn2)c2cc(OC)c(OC)c(OC)c2)cc1 0.0

Repeat with Oc1c(CN2CCCC2)cc(CSCc2ccccc2)c2cccnc12 1.0

----------
Below: a set of entries, each annotated with reported growth.
# Tested on: NCI/ADR-RES ovarian
# assay_remarks: NCI-60 one-dose screen, 48 h (100 = growth as untreated, 0 = no growth, -100 = all killed)
# experimental_setup: 10 µM unless noted
This is part of a sample that, as a whole, favours compounds with a hit. Of some 83,000 tested, about 20% had one in any assay.
The response must be a number in % with no trailing unit.

>>> df
                                   compound               target  value_type  reported_measurement
0  CNC1=CC(=O)c2c(C(=O)OC)c(C)[n+]([O-])c(C)c2C1=O  NCI/ADR-RES ovarian      growth                  70.6
1                                Ic1ccccc1I  NCI/ADR-RES ovarian      growth                   101

Under NCI/ADR-RES ovarian: growth value of COc1ccc(-c2nn(-c3ccccc3)cc2/C=C/C(=O)NNC(=O)Nc2ccc(C)cc2)cc1 ? 92.8

Repeat with CCOC(=O)c1c(C)nc2ccccc2c1/C=C/c1ccccc1 24.8

Repeat with Cc1ccc2nc(/C(C#N)=C(/CCCO)NC(Cc3ccccc3)C(=O)OCc3ccccc3)[nH]c(=O)c2c1 (stereo unspecified) 32.6

Repeat with NNCCc1ccc(NC(=O)CCCc2ccc(C(=O)Nc3ccccc3N)cc2)cc1 85
